Counter-ions that a name gives are not always drawn.
Measurement Label: melting point

Compound	Observed
COc1cccc([C@]2(C)CCN(C[C@@H](NC(=O)[C@@]3(C)Cc4ccc(O)cc4CN3)C(C)C)C[C@@H]2C)c1 (as salt: hydrochloride) [Compound 8h]	> 220 °C (dec.)
CC[C@H](C)[C@@H](CN1CC[C@@](C)(c2cccc(OC)c2)[C@@H](C)C1)NC(=O)[C@H]1Cc2ccc(O)cc2CN1C (as salt: hydrochloride) [Compound 8p]	180 °C (dec.)
COc1cccc([C@]2(C)CCN(C[C@@H](NC(=O)[C@@]3(C)Cc4ccc(OC)cc4CN3)C(C)C)C[C@@H]2C)c1 (as salt: hydrochloride) [Compound 8l]	> 220 °C (dec.)
COc1cccc([C@]2(C)CCN(C[C@@H](NC(=O)[C@H]3Cc4ccc(O)cc4CN3)C(C)C)C[C@@H]2C)c1 (as salt: hydrochloride) [Compound 8d]	> 220 °C (dec.)
CC[C@H](C)[C@@H](CN1CC[C@@](C)(c2cccc(OC)c2)[C@@H](C)C1)NC(=O)[C@@]1(C)Cc2ccc(O)cc2CN1 (as salt: hydrochloride) [Compound 8n]	210 °C (dec.)

###

target: cloned human κ-opioid receptor (Homo sapiens); experiment: Inhibition of U69,593-stimulated [35S]GTPγS binding
Sequence (P41145 whole entry): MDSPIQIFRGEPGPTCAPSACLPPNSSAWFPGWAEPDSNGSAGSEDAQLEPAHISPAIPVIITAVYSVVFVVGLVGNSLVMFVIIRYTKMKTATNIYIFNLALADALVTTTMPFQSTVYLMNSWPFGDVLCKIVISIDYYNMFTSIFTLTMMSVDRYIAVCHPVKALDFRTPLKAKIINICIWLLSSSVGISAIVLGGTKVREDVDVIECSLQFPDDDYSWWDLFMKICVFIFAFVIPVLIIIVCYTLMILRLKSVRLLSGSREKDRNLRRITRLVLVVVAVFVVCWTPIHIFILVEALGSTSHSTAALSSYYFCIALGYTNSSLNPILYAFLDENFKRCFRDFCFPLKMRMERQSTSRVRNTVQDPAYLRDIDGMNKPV
# reported Kb; entries follow
Measurement Label: Kb (nM)

>>> print(df.to_string())
                                   compound  measurement_label  observed
0  CC[C@H](C)[C@@H](CN1CC[C@@](C)(c2cccc(OC)c2)[C@@H](C)C1)NC(=O)[C@H]1Cc2ccc(O)cc2CN1                 Kb      0.96
1  COc1cccc([C@]2(C)CCN(C[C@@H](NC(=O)[C@H]3Cc4ccc(O)cc4CN3C)C(C)C)C[C@@H]2C)c1                 Kb       4.3
2  CC[C@H](C)[C@@H](CN1CC[C@@](C)(c2cccc(O)c2)[C@@H](C)C1)NC(=O)[C@H]1Cc2ccc(O)cc2CN1C                 Kb      0.11
3  COc1cccc([C@]2(C)CCN(C[C@@H](NC(=O)[C@@]3(C)Cc4ccc(OC)cc4CN3)C(C)C)C[C@@H]2C)c1                 Kb      15.2
4  CC[C@H](C)[C@@H](CN1CC[C@@](C)(c2cccc(OC)c2)[C@@H](C)C1)NC(=O)[C@H]1Cc2ccc(O)cc2CN1C                 Kb      2.03
5  COc1cccc([C@]2(C)CCN(C[C@@H](NC(=O)[C@@]3(C)Cc4ccc(O)cc4CN3)C(C)C)C[C@@H]2C)c1                 Kb      0.26
6  CC[C@H](C)[C@@H](CN1CC[C@@](C)(c2cccc(OC)c2)[C@@H](C)C1)NC(=O)[C@@]1(C)Cc2ccc(O)cc2CN1                 Kb      0.52
7  CC[C@H](C)[C@@H](CN1CC[C@@](C)(c2cccc(O)c2)[C@@H](C)C1)NC(=O)[C@@]1(C)Cc2ccc(O)cc2CN1                 Kb      0.11
8  COc1ccc2c(c1)CN(C)[C@@](C)(C(=O)N[C@H](CN1CC[C@@](C)(c3cccc(O)c3)[C@@H](C)C1)C(C)C)C2                 Kb       2.2
9  COc1cccc([C@]2(C)CCN(C[C@@H](NC(=O)[C@H]3Cc4ccc(O)cc4CN3)C(C)C)C[C@@H]2C)c1                 Kb     0.037
